Value source: ChEMBL document CHEMBL1140109

# Test system: Priestia megaterium
# EXPERIMENT: Antibacterial activity against Bacillus megaterium
# Assay type: functional, organism-based
MEASURE_NAME: MIC (µg/mL)
Provide only the numeric value, understood in µg/mL.

Query: Need MIC of CCCc1ccsc1-c1ccc(O)c(O)c1 , thanks.
Response: 6

Query: Please do the same for Cc1nc(C(=O)NC(C)C)c(-c2ccc(O)c(O)c2)s1 as well.
Response: 122

Query: Thanks! And Oc1ccc(-c2cc(Cl)sc2Cl)cc1O ?
Response: 1

Query: // repeat for CCCCc1ccsc1-c1ccc(O)c(O)c1 and report
Response: 3

Query: How about this compound: Cc1ccc(-c2ccc(O)c(O)c2)s1
Response: 10

Query: And the next one, Cc1nc(-c2ccc(O)c(O)c2)cs1 ?
Response: 73

Query: Another: N#Cc1ccc(-c2ccc(O)c(O)c2)s1
Response: 9

Query: Same again, this time with CCc1ccsc1-c1ccc(O)c(O)c1
Response: 11

Query: Let us now turn to Oc1ccc(-c2sccc2CCBr)cc1O
Response: 14

Query: Can you check Cc1ccsc1-c1ccc(O)c(O)c1 next?
Response: 13

Query: Another compound: Cc1nc(C(=O)NC2CC2)c(-c2ccc(O)c(O)c2)s1
Response: 62

Query: For Oc1ccc(-c2nccs2)cc1O then?
Response: 112

Query: How about Cc1cc(-c2ccc(O)c(O)c2)c(C)s1 ?
Response: 5

Query: Query Nc1nc(-c2ccc(O)c(O)c2)cs1 next
Response: 26
